B1: library; a variant is named by its letters at N, in order (parent)
chain: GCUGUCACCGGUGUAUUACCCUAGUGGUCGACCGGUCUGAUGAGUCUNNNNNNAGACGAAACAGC

- Variants of: B1
- Experiment Summary: normalized RNA/DNA level without ligand (relative to sTRSVctl = 100) (log10 (% of sTRSVctl)); ligand: hypoxanthine (xanthine aptamer); higher = less ribozyme self-cleavage, higher mRNA level
- Particulars: HEK293T, reporter: mCherry (pCS4076), ligand present: no
Measured Quantity: normalized RNA/DNA level without ligand (log10)

• GCUGUCACCGGUGUAUUACCCUAGUGGUCGACCGGUCUGAUGAGUCUUGGCGUAGACGAAACAGC = 1.68
• GCUGUCACCGGUGUAUUACCCUAGUGGUCGACCGGUCUGAUGAGUCUACGUAAAGACGAAACAGC = 1.49
• GCUGUCACCGGUGUAUUACCCUAGUGGUCGACCGGUCUGAUGAGUCUACAGUGAGACGAAACAGC = 1.35
• GCUGUCACCGGUGUAUUACCCUAGUGGUCGACCGGUCUGAUGAGUCUAACUUUAGACGAAACAGC = 1.9
• GCUGUCACCGGUGUAUUACCCUAGUGGUCGACCGGUCUGAUGAGUCUUUACCUAGACGAAACAGC = 1.88
• GCUGUCACCGGUGUAUUACCCUAGUGGUCGACCGGUCUGAUGAGUCUCCGUCUAGACGAAACAGC = 1.83
• GCUGUCACCGGUGUAUUACCCUAGUGGUCGACCGGUCUGAUGAGUCUGCGAUCAGACGAAACAGC = 1.46
• GCUGUCACCGGUGUAUUACCCUAGUGGUCGACCGGUCUGAUGAGUCUGACUAGAGACGAAACAGC = 1.47
• GCUGUCACCGGUGUAUUACCCUAGUGGUCGACCGGUCUGAUGAGUCUGUGCGAAGACGAAACAGC = 1.58
• GCUGUCACCGGUGUAUUACCCUAGUGGUCGACCGGUCUGAUGAGUCUCCUGACAGACGAAACAGC = 1.83
• GCUGUCACCGGUGUAUUACCCUAGUGGUCGACCGGUCUGAUGAGUCUCCGGAAAGACGAAACAGC = 1.71
